test: in vitro; settings: African green monkey
Observation type: CC50 (nM)
Give just the number in nM; leave the unit off.

Can you share its CC50? I mean this compound: COc1cc2c3c(c4cc(OC)c(OC)cc4c2cc1OC)CN1CCCC1C3 (centres unmarked)
420

----------
test system: SARS CoV; experiment: in vitro; settings: African green monkey
Observation type: selectivity ratio

>>> print(df.to_string())
                                   molecule   observation_type  experimental_value
0  COc1cc2c3c(c4cc(OC)c(OC)cc4c2cc1OC)C[N+]1([O-])CCCCC1C3 (stereo not drawn)  selectivity ratio                > 56
1  COc1cc2c3c(c4cc(OC)c(OC)cc4c2cc1OC)C(O)C1CCCCN1C3 (stereo not drawn)  selectivity ratio               > 7.1

Requested field: selectivity ratio. Item: COc1cc2c3c(c4cc(OC)c(OC)cc4c2cc1OC)CN1CCCC1C3 (stereo not drawn)
23.3

All values here come from patent US8440649B2.
